- systemName: murine GRPRs (Mus musculus, UniProt P21729)
- Construct: from tissue; host or cells: organs of male NMRI mice, in vivo (pancreas, stomach, small intestine and others)
- Sequence (P21729 whole entry): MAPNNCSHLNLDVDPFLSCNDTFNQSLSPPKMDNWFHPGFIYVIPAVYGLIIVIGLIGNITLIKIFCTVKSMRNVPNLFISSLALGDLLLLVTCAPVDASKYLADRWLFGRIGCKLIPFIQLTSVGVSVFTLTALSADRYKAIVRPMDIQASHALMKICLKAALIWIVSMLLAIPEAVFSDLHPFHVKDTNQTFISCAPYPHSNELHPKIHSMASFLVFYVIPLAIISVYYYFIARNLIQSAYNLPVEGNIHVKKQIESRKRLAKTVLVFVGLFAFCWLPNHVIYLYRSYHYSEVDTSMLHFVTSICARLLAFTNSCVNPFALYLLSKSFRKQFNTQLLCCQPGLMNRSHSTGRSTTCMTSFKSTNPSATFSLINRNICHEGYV
- methodNotes: Biodistribution and in vivo binding specificity in NMRI mice
- conditionSummary: small intestine, iv, total radioactivity, male NMRI mice, 45 pmol i.v., blocked (co-injected 20 nmol non-labeled peptide), 1 h p.i., read-out: Small intestine uptake
metricName: tissue uptake at 1 h

Query: Quick check: tissue uptake at 1 h of CC(C)C[C@H](NC(=O)C[C@H](O)[C@H](CC(C)C)NC(=O)[C@H](Cc1c[nH]cn1)NC(=O)CNC(=O)[C@@H](NC(=O)[C@H](C)NC(=O)[C@H](Cc1c[nH]c2ccccc12)NC(=O)[C@H](CCC(N)=O)NC(=O)[C@@H](Cc1ccccc1)NC(=O)COCCOCCNC(=O)CN1CCN(CC(=O)O)CCN(CC(=O)O)CC1)C(C)C)C(N)=O [[^18F]AlF-NOTA-P2-RM26] ?
Result: 1.7 %ID/g

====

- methodNotes: Biodistribution and in vivo binding specificity in PC-3 tumor-bearing BALB/c nu/nu mice
- conditionSummary: male, BALB/c nu/nu, mouse, pancreas, iv, 45 pmol, total radioactivity, male BALB/c nu/nu mice with PC-3 xenografts, 45 pmol i.v., 3 h p.i.; read-out: Pancreas uptake
metricName: tissue uptake at 3 h (%ID/g)
Expressed in %ID/g, but write only the number.

Query: Quick check: tissue uptake at 3 h of CC(C)C[C@H](NC(=O)C[C@H](O)[C@H](CC(C)C)NC(=O)[C@H](Cc1c[nH]cn1)NC(=O)CNC(=O)[C@@H](NC(=O)[C@H](C)NC(=O)[C@H](Cc1c[nH]c2ccccc12)NC(=O)[C@H](CCC(N)=O)NC(=O)[C@@H](Cc1ccccc1)NC(=O)COCCOCCNC(=O)CN1CCN(CC(=O)O)CCN(CC(=O)O)CC1)C(C)C)C(N)=O [[^18F]AlF-NOTA-P2-RM26] ?
Result: 2.7

====

- methodNotes: Biodistribution and in vivo binding specificity in PC-3 tumor-bearing BALB/c nu/nu mice
- conditionSummary: male, BALB/c nu/nu, mouse, bone, iv, total radioactivity, male BALB/c nu/nu mice with PC-3 xenografts, 45 pmol i.v., blocked (co-injected 20 nmol non-labeled peptide), 1 h p.i.; read-out: Bone uptake
metricName: tissue uptake at 1 h (%ID/g)
Expressed in %ID/g, but write only the number.

Query: Quick check: tissue uptake at 1 h of CC(C)C[C@H](NC(=O)C[C@H](O)[C@H](CC(C)C)NC(=O)[C@H](Cc1c[nH]cn1)NC(=O)CNC(=O)[C@@H](NC(=O)[C@H](C)NC(=O)[C@H](Cc1c[nH]c2ccccc12)NC(=O)[C@H](CCC(N)=O)NC(=O)[C@@H](Cc1ccccc1)NC(=O)COCCOCCNC(=O)CN1CCN(CC(=O)O)CCN(CC(=O)O)CC1)C(C)C)C(N)=O [[^18F]AlF-NOTA-P2-RM26] ?
Result: 0.2

====

- methodNotes: Biodistribution and in vivo binding specificity in PC-3 tumor-bearing BALB/c nu/nu mice
- conditionSummary: male, BALB/c nu/nu, mouse, pancreas, iv, total radioactivity, male BALB/c nu/nu mice with PC-3 xenografts, 45 pmol i.v., blocked (co-injected 20 nmol non-labeled peptide), 1 h p.i.; read-out: Pancreas uptake
metricName: tissue uptake at 1 h (%ID/g)
Expressed in %ID/g, but write only the number.

Query: Quick check: tissue uptake at 1 h of CC(C)C[C@H](NC(=O)C[C@H](O)[C@H](CC(C)C)NC(=O)[C@H](Cc1c[nH]cn1)NC(=O)CNC(=O)[C@@H](NC(=O)[C@H](C)NC(=O)[C@H](Cc1c[nH]c2ccccc12)NC(=O)[C@H](CCC(N)=O)NC(=O)[C@@H](Cc1ccccc1)NC(=O)COCCOCCNC(=O)CN1CCN(CC(=O)O)CCN(CC(=O)O)CC1)C(C)C)C(N)=O [[^18F]AlF-NOTA-P2-RM26] ?
Result: 0.3

====

- methodNotes: Biodistribution and in vivo binding specificity in PC-3 tumor-bearing BALB/c nu/nu mice
- conditionSummary: mouse, gastrointestinal tract (whole sample), iv, total radioactivity; male BALB/c nu/nu mice with PC-3 xenografts, 45 pmol i.v., 3 h p.i.; read-out: GI tract uptake
metricName: tissue uptake dose at 3 h (%ID)
Expressed in %ID, but write only the number.

Query: Quick check: tissue uptake dose at 3 h of CC(C)C[C@H](NC(=O)C[C@H](O)[C@H](CC(C)C)NC(=O)[C@H](Cc1c[nH]cn1)NC(=O)CNC(=O)[C@@H](NC(=O)[C@H](C)NC(=O)[C@H](Cc1c[nH]c2ccccc12)NC(=O)[C@H](CCC(N)=O)NC(=O)[C@@H](Cc1ccccc1)NC(=O)COCCOCCNC(=O)CN1CCN(CC(=O)O)CCN(CC(=O)O)CC1)C(C)C)C(N)=O [[^18F]AlF-NOTA-P2-RM26] ?
Result: 5.2

====

- methodNotes: Biodistribution and in vivo binding specificity in PC-3 tumor-bearing BALB/c nu/nu mice
- conditionSummary: male, BALB/c nu/nu, mouse, kidney, iv, 45 pmol, total radioactivity, male BALB/c nu/nu mice with PC-3 xenografts, 45 pmol i.v., 3 h p.i.; read-out: Kidney uptake
- Source text: All animal studies were planned and performed in accordance with the national legislation on the protection of laboratory animals and the Ethic Committee for Animal Research of the Uppsala University approved the study plans. Randomly divided groups of 4 mice per data point were used in all experiments. […] BALB/c nu/nu male mice with PC-3 xenografts (weight 20±1 g at the time of the experiment) were used for tumor targeting and imaging studies. […]
metricName: tissue uptake at 3 h

Query: Quick check: tissue uptake at 3 h of CC(C)C[C@H](NC(=O)C[C@H](O)[C@H](CC(C)C)NC(=O)[C@H](Cc1c[nH]cn1)NC(=O)CNC(=O)[C@@H](NC(=O)[C@H](C)NC(=O)[C@H](Cc1c[nH]c2ccccc12)NC(=O)[C@H](CCC(N)=O)NC(=O)[C@@H](Cc1ccccc1)NC(=O)COCCOCCNC(=O)CN1CCN(CC(=O)O)CCN(CC(=O)O)CC1)C(C)C)C(N)=O [[^18F]AlF-NOTA-P2-RM26] ?
Result: 1.74 %ID/g

====

- systemName: murine GRPRs (Mus musculus, UniProt P21729)
- Construct: from tissue; host or cells: organs of male NMRI mice, in vivo (pancreas, stomach, small intestine and others)
- methodNotes: Biodistribution and in vivo binding specificity in NMRI mice
- conditionSummary: muscle, iv, total radioactivity, male NMRI mice, 45 pmol i.v., blocked (co-injected 20 nmol non-labeled peptide), 1 h p.i., read-out: Muscle uptake
- Description: All animal studies were planned and performed in accordance with the national legislation on the protection of laboratory animals and the Ethic Committee for Animal Research of the Uppsala University approved the study plans. Randomly divided groups of 4 mice per data point were used in all experiments. […] BALB/c nu/nu male mice with PC-3 xenografts (weight 20±1 g at the time of the experiment) were used for tumor targeting and imaging studies. […]
metricName: tissue uptake at 1 h (%ID/g)
Expressed in %ID/g, but write only the number.

Query: Quick check: tissue uptake at 1 h of CC(C)C[C@H](NC(=O)C[C@H](O)[C@H](CC(C)C)NC(=O)[C@H](Cc1c[nH]cn1)NC(=O)CNC(=O)[C@@H](NC(=O)[C@H](C)NC(=O)[C@H](Cc1c[nH]c2ccccc12)NC(=O)[C@H](CCC(N)=O)NC(=O)[C@@H](Cc1ccccc1)NC(=O)COCCOCCNC(=O)CN1CCN(CC(=O)O)CCN(CC(=O)O)CC1)C(C)C)C(N)=O [[^18F]AlF-NOTA-P2-RM26] ?
Result: 0.08

====

- methodNotes: Biodistribution and in vivo binding specificity in PC-3 tumor-bearing BALB/c nu/nu mice
- conditionSummary: male, BALB/c nu/nu, mouse, stomach, iv, 45 pmol, total radioactivity, male BALB/c nu/nu mice with PC-3 xenografts, 45 pmol i.v., 3 h p.i.; read-out: Stomach uptake
metricName: tissue uptake at 3 h (%ID/g)
Expressed in %ID/g, but write only the number.

Query: Quick check: tissue uptake at 3 h of CC(C)C[C@H](NC(=O)C[C@H](O)[C@H](CC(C)C)NC(=O)[C@H](Cc1c[nH]cn1)NC(=O)CNC(=O)[C@@H](NC(=O)[C@H](C)NC(=O)[C@H](Cc1c[nH]c2ccccc12)NC(=O)[C@H](CCC(N)=O)NC(=O)[C@@H](Cc1ccccc1)NC(=O)COCCOCCNC(=O)CN1CCN(CC(=O)O)CCN(CC(=O)O)CC1)C(C)C)C(N)=O [[^18F]AlF-NOTA-P2-RM26] ?
Result: 1.37

====

- methodNotes: Biodistribution and in vivo binding specificity in PC-3 tumor-bearing BALB/c nu/nu mice
- conditionSummary: male, BALB/c nu/nu, mouse, kidney, iv, total radioactivity, male BALB/c nu/nu mice with PC-3 xenografts, 45 pmol i.v., blocked (co-injected 20 nmol non-labeled peptide), 1 h p.i.; read-out: Kidney uptake
metricName: tissue uptake at 1 h (%ID/g)
Expressed in %ID/g, but write only the number.

Query: Quick check: tissue uptake at 1 h of CC(C)C[C@H](NC(=O)C[C@H](O)[C@H](CC(C)C)NC(=O)[C@H](Cc1c[nH]cn1)NC(=O)CNC(=O)[C@@H](NC(=O)[C@H](C)NC(=O)[C@H](Cc1c[nH]c2ccccc12)NC(=O)[C@H](CCC(N)=O)NC(=O)[C@@H](Cc1ccccc1)NC(=O)COCCOCCNC(=O)CN1CCN(CC(=O)O)CCN(CC(=O)O)CC1)C(C)C)C(N)=O [[^18F]AlF-NOTA-P2-RM26] ?
Result: 3.9
